assayProtocol: Cytotoxicity against African green monkey Vero cells after 3 days by hemocytometry
Format: cell-based
conditionNotes: chlorocebus sabaeus
# CC50 at 72 h annotations

Identify measured CC50 at 72 h associated with CCOC(=O)[C@H](C)NP(=O)(OC[C@H]1O[C@@H](n2cnc3c(OC)nc(ONC(=O)OCc4ccccc4)nc32)[C@](C)(O)[C@@H]1O)Oc1ccccc1 (stereo partly drawn)
> 100 µM

Identify measured CC50 at 72 h associated with CCOC(=O)[C@H](C)NP(=O)(OC[C@H]1O[C@@H](n2cnc3c(OC)nc(Cl)nc32)[C@](C)(O)[C@@H]1O)Oc1ccccc1 (stereo partly drawn)
> 100 µM

Identify measured CC50 at 72 h associated with `CONc1nc(N)c2ncn([C@@H]3O[C@H](CO)[C@@H](O)[C@@]3(C)O)c2n1`
> 100 µM

Identify measured CC50 at 72 h associated with `COc1nc(Cl)nc2c1ncn2[C@@H]1O[C@H](CO)[C@@H](O)[C@@]1(C)O`
> 100 µM

Identify measured CC50 at 72 h associated with `C[C@@]1(O)[C@H](O)[C@@H](CO)O[C@H]1n1cnc2c(N)nc(N=[N+]=[N-])nc21`
> 100 µM

Others:
Identify measured CC50 at 72 h associated with CCOC(=O)[C@H](C)NP(=O)(OC[C@H]1O[C@@H](n2cnc3c(ONC(=O)OC(C)(C)C)nc(N)nc32)[C@](C)(O)[C@@H]1O)Oc1ccccc1 (stereo partly drawn)
> 100 µM

Identify measured CC50 at 72 h associated with CCOC(=O)[C@H](C)NP(=O)(OC[C@H]1O[C@@H](n2cnc3c(N)nc(F)nc32)[C@](C)(O)[C@@H]1O)Oc1ccccc1 (stereo partly drawn)
> 100 µM

Identify measured CC50 at 72 h associated with `C[C@@]1(O)[C@H](O)[C@@H](CO)O[C@H]1n1cnc2c(N)nc(ONC(=O)OCc3ccccc3)nc21`
> 100 µM
